system: KPN 6299; test: MIC, broth microdilution (CLSI), substance alone or ATB combined with compound at 4 or 8 μg/mL; format: cell-based, K. pneumoniae; settings: with Example 1 at 8 μg/ml
Flag rule - MIC ATB combined with Example 1 @8 μg/ml less than 1 mg/L flags 1.0; the remaining entries get 0.0.

[ask] Strictly below 1 mg/L in MIC ATB combined with Example 1 @8 μg/ml? C=CC1=C(C(=O)O)N2C(=O)[C@@H](NC(=O)/C(=N\OCC(=O)O)c3csc(N)n3)[C@H]2SC1 [FIX, Cefixime, reference compound]
[reply] 1.0

[ask] Lab note: confirm whether the reported MIC ATB combined with Example 1 @8 μg/ml for this compound is below 1 mg/L, equality not counting. compound: NCC[C@H](O)C(=O)N[C@@H]1C[C@H](N)[C@@H](O[C@H]2O[C@H](CN)[C@@H](O)[C@H](O)[C@H]2O)[C@H](O)[C@H]1O[C@H]1O[C@H](CO)[C@@H](O)[C@H](N)[C@H]1O [AN, Amikacin, reference compound]
[reply] 0.0

[ask] In the record for COCC1=C(C(=O)O)N2C(=O)[C@@H](NC(=O)/C(=N\OC)c3csc(N)n3)[C@H]2SC1 [POD, Cefpodoxime, reference compound] , is MIC ATB combined with Example 1 @8 μg/ml less than 1 mg/L?
[reply] 1.0

[ask] In the record for CO/N=C(\C(=O)N[C@@H]1C(=O)N2C(C(=O)O)=C(COC(N)=O)CS[C@H]12)c1ccco1 [FUR, Cefuroxime, reference compound] , is MIC ATB combined with Example 1 @8 μg/ml less than 1 mg/L?
[reply] 0.0

[ask] Would you kindly verify if MIC ATB combined with Example 1 @8 μg/ml of CC1(C)S[C@@H]2[C@H](NC(=O)[C@H](N)c3ccc(O)cc3)C(=O)N2[C@H]1C(=O)O [AMX, Amoxicillin, reference compound] is strictly less than 1 mg/L?
[reply] 0.0

[ask] Hello, I'm reviewing records and need to know if MIC ATB combined with Example 1 @8 μg/ml of CO/N=C(\C(=O)N[C@@H]1C(=O)N2C(C(=O)[O-])=C(C[n+]3cccc4c3CCC4)CS[C@H]12)c1csc(N)n1 [CPO] is below 1 mg/L. Could you check?
[reply] 1.0

* * *

Exercise: for every item that follows, state its recorded MIC.
tested on: ECO UFR39; assay: MIC, broth microdilution (CLSI), substance alone or ATB combined with compound at 4 or 8 μg/mL; assay type: cell-based, E. coli; conditions: Escherichia coli; antibiotic alone; ECO UFR39; read-out: MIC ATB alone
Reply numerically in µg/mL, unit not repeated.

[ask] Give a short answer stating reported MIC for C[C@@H](O)[C@H]1C(=O)N2C(C(=O)O)=C(S[C@@H]3CN[C@H](C(=O)N(C)C)C3)[C@H](C)[C@H]12 .
[reply] 64

[ask] In one line, give reported MIC of the entry C[C@@H]1O[C@@H]1P(=O)(O)O [FOS, Fosfomycin, reference compound] .
[reply] 4

* * *

Test system: PAE UFR48
Test: MIC, broth microdilution (CLSI), substance alone or ATB combined with compound at 4 or 8 μg/mL
Format: cell-based, P. aeruginosa
Conditions: ATB FEP; PAE UFR48; Example @8 μg/ml
Description: Compounds of the present invention were assessed against genotyped bacterial strains alone or in combination with an antibacterial. In the assays, MICs of said compounds or combination of antibiotics with fixed concentrations of said compounds (4 or 8 μg/mL) were determined by the broth microdilution method according to the Clinical Laboratory Standards Institute (CLSI-M7-A7). […]
What MIC ATB combined with Example was measured for each of the following?
Hi! Could you send only the number? It should be in µg/mL, unit omitted.

[ask] Please look at this molecule and report its MIC ATB combined with Example: O=C1N2CC(n3cccn3)=CC(C2)N1OS(=O)(=O)[O-].[Na+] (centres unmarked)
[reply] 32

[ask] Quickly give me recorded MIC ATB combined with Example for O=C1N2CC(n3cncn3)=CC(C2)N1OS(=O)(=O)[O-].[Na+] (centres unmarked)
[reply] 16

[ask] Quickly give me recorded MIC ATB combined with Example for O=C1N2CC(n3ccnn3)=CC(C2)N1OS(=O)(=O)[O-].[Na+] (centres unmarked)
[reply] 16

[ask] Complete the entry with MIC ATB combined with Example for O=C1N2CC(n3cccn3)=CC(C2)N1OC(F)(F)C(=O)[O-].[Li+] (centres unmarked)
[reply] 32
